- Test system: Salmonella enteritidis G-14
- Test Details: MIC, agar dilution method, pH 7.2
- Assay type: cell-based
- Cond: Salmonella enterica, ENTERITIDIS, pH 7.2, read-out: Minimum inhibition concentration (MIC)
Quantity Name: MIC (µg/mL)
The figure you give is taken to be in µg/mL; do not add the unit.

[in] State its MIC on Salmonella enteritidis G-14: CO[C@H]1[C@@H](O)[C@H](N)[C@@H](O[C@H]2O[C@H]([C@H](C)N)CC[C@H]2N)[C@H](O)[C@@H]1N(C)CC(O)CCN (stereo partly shown)
[out] 6.25

[in] State its MIC on Salmonella enteritidis G-14: NC[C@H]1O[C@H](O[C@H]2[C@H](O)[C@@H](O[C@H]3O[C@H](CO)[C@@H](O)[C@H](N)[C@H]3O)[C@H](N)C[C@@H]2N)[C@H](O)[C@@H](O)[C@@H]1O [KA, kanamycin A, reference compound]
[out] 3.12

[in] State its MIC on Salmonella enteritidis G-14: CO[C@H]1[C@@H](O)[C@H](N)[C@@H](O[C@H]2O[C@H]([C@H](C)N)CC[C@H]2N)[C@H](O)[C@@H]1N(C)C[C@@H](O)CCN
[out] 3.12

[in] State its MIC on Salmonella enteritidis G-14: CO[C@H]1[C@@H](O)[C@H](N)[C@@H](O[C@H]2O[C@H]([C@H](C)N)CC[C@H]2N)[C@H](O)[C@@H]1N(C)C(=O)CN [Compound 2, 4-N-glycylfortimicin B, reference compound]
[out] 6.25
